Just for reference, ChEMBL document CHEMBL6109095 is where these values come from.

Catalogue of compounds with associated LED
target: UniProt:O95749; experiment: Inhibition of GGDPS in human RPMI-8226 cells assessed as lowest effective concentration required to show unmodified Rap1a band measured after 48 hrs by immunoblot analysis; type: cell-based
Sequence (O95749 whole entry): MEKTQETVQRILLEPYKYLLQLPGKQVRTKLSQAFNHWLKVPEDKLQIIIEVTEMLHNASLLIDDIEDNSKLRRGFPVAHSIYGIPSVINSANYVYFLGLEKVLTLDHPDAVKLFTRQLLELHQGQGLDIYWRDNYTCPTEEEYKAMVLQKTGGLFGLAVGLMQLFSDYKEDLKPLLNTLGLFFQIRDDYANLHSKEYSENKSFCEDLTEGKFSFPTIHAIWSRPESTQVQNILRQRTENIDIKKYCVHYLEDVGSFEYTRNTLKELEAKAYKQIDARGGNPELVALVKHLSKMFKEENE
MEASURED_QUANTITY: LED (µM)

CC(C)=CCC/C(C)=C/CCn1cc(CC(P(=O)(O)O)P(=O)(O)O)nn1 ... 0.09
CC(C)=CCC/C(C)=C/CCn1cc(C=C(P(=O)(O)O)P(=O)(O)O)nn1 ... 0.25
CC(C)=CCCC(C)=CCn1cc(C2OC2(P(=O)(O)O)P(=O)(O)O)nn1 (stereo not given) ... 5
CC(C)=CCCC(C)CCCn1cc(CC(P(=O)(O)O)P(=O)(O)O)nn1 (stereo not given) ... 10
CC(C)=CCC/C(C)=C\CCn1cc(C2OC2(P(=O)(O)O)P(=O)(O)O)nn1 (stereo not given) ... 2.5
